Test system: MS2 coat protein
protocol: apparent Kd, MS2 coat protein; higher = weaker binding; RNA-MaP array; FMN 200 µM where present
details: ligand present: flavin mononucleotide; designed as: ON switch for flavin mononucleotide
Task for the reader: assign each of the following sequences its reported apparent Kd.
One number for each entry, in nM.

seq_text=GAUUGACGACAAUUACAUGAGGAUCACCCAUGUUGUAGUAUGCAGGAUAUGUGGUAUAUUAUUUAACAGAAGGGCAAUAAUUUU target_or_test_system="MS2 coat protein" display_unit=nM data_value=42.4

Dear reader, for each entry below, please note its apparent Kd.
1. UAAUAAUUAUGAGGAUAUAUACAACAUGAGGAUCACCCAUGUACCCAUGUAGUAGAAGGCAUAUUUUUAGUUAAUAAUAUAACU
2. GGAUCCAACACAGGAUAUGCUGGACUUUGUCCAGCAGAAGGGUGACAUGAGGAUCACCCAUGUAAUAGGAUCCAUAUAUUUAAU

1. 33
2. 198

For each of the sequences below, state apparent Kd.
1. GGGUACAUCGGAGGAUAUCAUGUAAAUACAUGAGGAUCACCCAUGUCGAUGGAGACAUCGGAGAUUGAGAAGGCUGAUGUACCG
2. UUAGAAUUGCAAGGAUAUCUAAUUUAGAUAGUAAGAGAAGGUGCUUGAUAGUUACAUGAGGAUCACCCAUGUUUUUGGGUUUAU
3. CGAAAAUUUCAGAAGGACCGAUUCCACAUGAGGAUCACCCAUGUCGAUGGUAGGAUAUGGAGUUGUGGACAGGGCGGAUGUUCC
4. UGUUGUAUUACAGGAUAUCUAUUGGUUUUAUUUAGAGAAGGGUAUUCACAUGAGGAUCACCCAUGUAUAUACGAGGAAGUUGUG

9.18
412
8.39
66.9
